System: DU-145
Procedure text: NCI tumour cell line growth inhibition, 48 h
The source made the active and inactive calls. No stated cut-off is given here; in the data, active = GI50 up to about 1.1 µM and inactive = higher.
# GI50 per entry
Assay metric: GI50

compound=Cn1c(=O)c2[nH]c(N/N=C3/SCC(=O)N3Cc3ccccc3)nc2n(C)c1=O result="65.6 µM (inactive)"
compound=CCOC(=O)N1CCN(c2ccc3c(C)cc(C)nc3n2)CC1 result="> 100 µM (inactive)"
compound="C[C@]12CC[C@@H]3c4ccc(OS(N)(=O)=O)cc4CC[C@H]3[C@@H]1CCC2=O [EMATE]" result="42.7 µM (inactive)"
compound=CCN(CC)CCn1c(=O)c2cccnc2n2c3c(=O)n(C)c(=O)n(C)c3nc12 result="> 100 µM (inactive)"
compound=CC(=O)OI1NC(=O)c2ccccc21 result="> 100 µM (inactive)"
compound="COc1c(CC=C(C)C)c(O)c(C(CC(C)C)c2c(O)c3c(c(C(C)=O)c2O)OC(C(C)(C)O)C3)c(O)c1C(C)=O (stereo not given)" result="4.54 µM (inactive)"
compound="CCCCNC1CCC2(SCCS2)c2[nH]c3ccccc3c21 (stereo not given)" result="19.1 µM (inactive)"
compound=CCOC(=O)C(=O)/C(=C/NC(=S)Nc1ccc(Cl)c(Cl)c1)C(=O)OCC result="> 100 µM (inactive)"
compound=O=C1CCC(c2ccccc2)(c2ccccc2)CC1 result="> 100 µM (inactive)"
compound=CC(=O)O[C@H]1CC[C@H]2[C@@H]3CCC4=CC(=O)C=C[C@]4(O)[C@H]3CC[C@]12C result="> 50.4 µM (inactive)"
